System: 873145-292-R-J1-PDC complex spheroid viability
Assay: Anticancer human tumor 873145-292-R-J1-PDC patient-derived renal clear cell carcinoma cell line growth inhibition [POLQ]
Conditions: second compound 10 µM; first compound 3.16 µM; stronger effect = lower value
Mark Satisfied only for viability, T/C values smaller than 90%; exact matches and larger values are Not satisfied.

In: Lab note: confirm whether the reported viability, T/C for this compound is below 90%, equality not counting. compound: COc1cc2cc(C(=O)CCC(=O)O)sc2cc1OC + Nc1ccc(C#CCN(C(=O)Cc2ncc(C(F)(F)F)cc2C(F)(F)F)c2ccc(F)cc2)nn1
Out: Not satisfied

In: Lab note: confirm whether the reported viability, T/C for this compound is below 90%, equality not counting. compound: C#Cc1c(F)ccc2cc(O)cc(-c3ncc4c(N5CC6CCC(C5)N6)nc(OCC56CCCN5CC(F)C6)nc4c3F)c12 (stereo not given) + Cc1cccc(N(C)C(=O)C2C(O)CCN2c2nc(C)cc(C(F)(F)F)c2C#N)c1
Out: Satisfied

In: Lab note: confirm whether the reported viability, T/C for this compound is below 90%, equality not counting. compound: CCc1cc2c(N3CCc4c(cc(Cn5ccnc5)cc4-c4cn(C)nc4C(F)(F)F)C3=O)cc(C)nc2c(OC)n1 + Cc1cccc(N(C)C(=O)C2C(O)CCN2c2nc(C)cc(C(F)(F)F)c2C#N)c1
Out: Satisfied

In: Lab note: confirm whether the reported viability, T/C for this compound is below 90%, equality not counting. compound: CC1COCCN1c1cc(-c2ccnn2C)c2ccnc(-c3ccn[nH]3)c2n1 (stereo not given) + Nc1ccc(C#CCN(C(=O)Cc2ncc(C(F)(F)F)cc2C(F)(F)F)c2ccc(F)cc2)nn1
Out: Satisfied

In: Lab note: confirm whether the reported viability, T/C for this compound is below 90%, equality not counting. compound: O=c1[nH]cc(F)c(=O)[nH]1 + COC1C(OC(N)=O)C(O)C(Oc2ccc3c(O)c(NC(=O)c4ccc(O)c(CC=C(C)C)c4)c(=O)oc3c2C)OC1(C)C
Out: Not satisfied

* * *

Consider the following compounds; for each one, report its viability, T/C.
Test system: 873145-292-R-J1-PDC complex spheroid viability
Assay: Anticancer human tumor 873145-292-R-J1-PDC cell line growth inhibition [POLQ];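 also: spheroids exposed to compounds for 7 days before viability readout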;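 as to viability, T/C: luminescence signal used as surrogate for viable cell content; 100% = DMSO vehicle control viability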
Conditions: second compound 0.0316 µM; first compound 0.1 µM; stronger effect = lower value
One number for each entry, in %.

# Compound, viability, T/C (%)
data = [
    ("C=CC(=O)N1CCN(c2nc(=O)n(-c3c(C)ccnc3C(C)C)c3nc(-c4c(O)cccc4F)c(F)cc23)C(C)C1 (stereo not drawn) + Nc1ccc(C#CCN(C(=O)Cc2ncc(C(F)(F)F)cc2C(F)(F)F)c2ccc(F)cc2)nn1", 105),
    ("CC[C@@]1(O)C(=O)OCc2c1cc1n(c2=O)Cc2cc3c(CN(C)C)c(O)ccc3nc2-1 + Nc1ccc(C#CCN(C(=O)Cc2ncc(C(F)(F)F)cc2C(F)(F)F)c2ccc(F)cc2)nn1", 56.4),
    ("C=CC(=O)N1CCN(c2nc(=O)n(-c3c(C)ccnc3C(C)C)c3nc(-c4c(O)cccc4F)c(F)cc23)C(C)C1 (stereo not drawn) + Cc1cccc(N(C)C(=O)C2C(O)CCN2c2nc(C)cc(C(F)(F)F)c2C#N)c1", 108),
]

I would be grateful if you could provide viability, T/C for each of the following entries.
1. COc1ccc([C@@H](O)c2cc(-c3ncnc4cc(N5CCOCC5)ccc34)c(F)cc2Cl)nn1 + COC1C(OC(N)=O)C(O)C(Oc2ccc3c(O)c(NC(=O)c4ccc(O)c(CC=C(C)C)c4)c(=O)oc3c2C)OC1(C)C
2. Cn1ncnc1[C@H]1c2n[nH]c(=O)c3cc(F)cc(c23)N[C@@H]1c1ccc(F)cc1 + Nc1ccc(C#CCN(C(=O)Cc2ncc(C(F)(F)F)cc2C(F)(F)F)c2ccc(F)cc2)nn1

Out:
97.4
104

I would be grateful if you could provide viability, T/C for each of the following entries.
1. CC1COCCN1c1cc(-c2ccnn2C)c2ccnc(-c3ccn[nH]3)c2n1 (stereo not drawn) + COC1C(OC(N)=O)C(O)C(Oc2ccc3c(O)c(NC(=O)c4ccc(O)c(CC=C(C)C)c4)c(=O)oc3c2C)OC1(C)C
2. CCCS(=O)(=O)Nc1ccc(F)c(C(=O)c2c[nH]c3ncc(-c4ccc(Cl)cc4)cc23)c1F + Cc1cccc(N(C)C(=O)C2C(O)CCN2c2nc(C)cc(C(F)(F)F)c2C#N)c1
3. Cn1ncnc1[C@H]1c2n[nH]c(=O)c3cc(F)cc(c23)N[C@@H]1c1ccc(F)cc1 + Cc1cccc(N(C)C(=O)C2C(O)CCN2c2nc(C)cc(C(F)(F)F)c2C#N)c1

Out:
[80.9, 110, 98]

* * *

Consider the following molecules; for each one, report its IC50.
Test system: 873145-292-R-J1-PDC complex spheroid viability
Test: Anticancer human tumor 873145-292-R-J1-PDC cell line growth inhibition [POLQ];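 also: spheroids exposed to compounds for 7 days before viability readout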
Details: curve of first compound; second compound 0.1 µM

# Molecule, IC50
data = [
    ("CC(C)n1c(=O)n(C)c2cnc3cc(F)c(-c4ccc(OCCCN5CCCCC5)nc4)cc3c21 + Cc1cccc(N(C)C(=O)C2C(O)CCN2c2nc(C)cc(C(F)(F)F)c2C#N)c1", "> 10 µM"),
    ("O=c1[nH]cc(F)c(=O)[nH]1 + Cc1cccc(N(C)C(=O)C2C(O)CCN2c2nc(C)cc(C(F)(F)F)c2C#N)c1", "> 10 µM"),
    ("C#Cc1c(F)ccc2cc(O)cc(-c3ncc4c(N5CC6CCC(C5)N6)nc(OCC56CCCN5CC(F)C6)nc4c3F)c12 (stereo not given) + Nc1ccc(C#CCN(C(=O)Cc2ncc(C(F)(F)F)cc2C(F)(F)F)c2ccc(F)cc2)nn1", "> 10 µM"),
    ("CC1COCCN1c1cc(C2(O)CC3CCC(C2)O3)c2cnn(-c3ccn[nH]3)c2n1 (stereo not given) + Cc1cccc(N(C)C(=O)C2C(O)CCN2c2nc(C)cc(C(F)(F)F)c2C#N)c1", "0.61 µM"),
]

We next turn to a different molecule, shown below.
In: Item: COc1cccc(OCCCN)c1-c1cc(Nc2cnc(C#N)cn2)n[nH]1 + Nc1ccc(C#CCN(C(=O)Cc2ncc(C(F)(F)F)cc2C(F)(F)F)c2ccc(F)cc2)nn1 Test system: 873145-292-R-J1-PDC complex spheroid viability Read-out: IC50 Value: ?
Out: > 1 µM

* * *

System: 873145-292-R-J1-PDC complex spheroid viability
Assay: Anticancer human tumor 873145-292-R-J1-PDC cell line growth inhibition [POLQ];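 also: spheroids exposed to compounds for 7 days before viability readout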;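 as to viability, T/C: luminescence signal used as surrogate for viable cell content; 100% = DMSO vehicle control viability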
Conditions: second compound 0.316 µM; first compound 0.00316 µM; stronger effect = lower value
Procedure: Multicellular complex tumor spheroid response to Polymerase (POL) inhibitors (novobiocin, ART-558, RP6685) in combination with a variety of drugs and investigational agents in selected tumor cell lines The POL inhibitors (novobiocin, ART-558, and RP6685) were evaluated both individually and in combination with standard of care and investigational anticancer small molecules within a complex spheroid model of solid tumors. . […]
Measurement Type: viability, T/C (%)
One number for each entry, in %.

Look over these answered cases.
# Compound, viability, T/C (%)
data = [
    ("C=CCn1c(=O)c2cnc(Nc3ccc(N4CCN(C)CC4)cc3)nc2n1-c1cccc(C(C)(C)O)n1 + Nc1ccc(C#CCN(C(=O)Cc2ncc(C(F)(F)F)cc2C(F)(F)F)c2ccc(F)cc2)nn1", 91.8),
    ("COc1cccc(OCCCN)c1-c1cc(Nc2cnc(C#N)cn2)n[nH]1 + Cc1cccc(N(C)C(=O)C2C(O)CCN2c2nc(C)cc(C(F)(F)F)c2C#N)c1", 95.5),
]

I would be grateful if you could provide viability, T/C for each of the following entries.
1. CCc1c2c(nc3ccc(O)cc13)-c1cc3c(c(=O)n1C2)COC(=O)[C@]3(O)CC + COC1C(OC(N)=O)C(O)C(Oc2ccc3c(O)c(NC(=O)c4ccc(O)c(CC=C(C)C)c4)c(=O)oc3c2C)OC1(C)C
2. CC[C@@]1(O)C(=O)OCc2c1cc1n(c2=O)Cc2cc3c(CN(C)C)c(O)ccc3nc2-1 + Nc1ccc(C#CCN(C(=O)Cc2ncc(C(F)(F)F)cc2C(F)(F)F)c2ccc(F)cc2)nn1

Out:
[103, 92]

* * *

Consider the following compounds; for each one, report its viability, T/C.
Tested on: 873145-292-R-J1-PDC complex spheroid viability
Test: Anticancer human tumor 873145-292-R-J1-PDC cell line growth inhibition [POLQ];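 also: spheroids exposed to compounds for 7 days before viability readout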;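 as to viability, T/C: luminescence signal used as surrogate for viable cell content; 100% = DMSO vehicle control viability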
Settings: second compound 0.316 µM; first compound 0.316 µM; stronger effect = lower value
Numbers only, in %.

Look over these answered cases.
# Compound, viability, T/C [%]
measured = [
    ("CC1COCCN1c1cc(-c2ccnn2C)c2ccnc(-c3ccn[nH]3)c2n1 (centres undefined) + Nc1ccc(C#CCN(C(=O)Cc2ncc(C(F)(F)F)cc2C(F)(F)F)c2ccc(F)cc2)nn1", 70.2),
    ("C=CCn1c(=O)c2cnc(Nc3ccc(N4CCN(C)CC4)cc3)nc2n1-c1cccc(C(C)(C)O)n1 + Nc1ccc(C#CCN(C(=O)Cc2ncc(C(F)(F)F)cc2C(F)(F)F)c2ccc(F)cc2)nn1", 87.8),
    ("CC1COCCN1c1cc(-c2ccnn2C)c2ccnc(-c3ccn[nH]3)c2n1 (centres undefined) + Cc1cccc(N(C)C(=O)C2C(O)CCN2c2nc(C)cc(C(F)(F)F)c2C#N)c1", 69),
    ("CC1COCCN1c1cc(C2(O)CC3CCC(C2)O3)c2cnn(-c3ccn[nH]3)c2n1 (centres undefined) + Cc1cccc(N(C)C(=O)C2C(O)CCN2c2nc(C)cc(C(F)(F)F)c2C#N)c1", 52.5),
    ("COc1cc2cc(C(=O)CCC(=O)O)sc2cc1OC + Cc1cccc(N(C)C(=O)C2C(O)CCN2c2nc(C)cc(C(F)(F)F)c2C#N)c1", 95.1),
    ("O=c1[nH]cc(F)c(=O)[nH]1 + COC1C(OC(N)=O)C(O)C(Oc2ccc3c(O)c(NC(=O)c4ccc(O)c(CC=C(C)C)c4)c(=O)oc3c2C)OC1(C)C", 87.1),
    ("CCc1cc2c(N3CCc4c(cc(Cn5ccnc5)cc4-c4cn(C)nc4C(F)(F)F)C3=O)ccnc2c(OC)n1 + COC1C(OC(N)=O)C(O)C(Oc2ccc3c(O)c(NC(=O)c4ccc(O)c(CC=C(C)C)c4)c(=O)oc3c2C)OC1(C)C", 86.4),
    ("Nc1ccn(C2OC(CO)C(O)C2(F)F)c(=O)n1 (centres undefined) + Cc1cccc(N(C)C(=O)C2C(O)CCN2c2nc(C)cc(C(F)(F)F)c2C#N)c1", 54.6),
]

We next turn to a different compound, shown below.
In: Could you share which viability, T/C value was measured for Nc1ccn(C2OC(CO)C(O)C2(F)F)c(=O)n1 (centres undefined) + Nc1ccc(C#CCN(C(=O)Cc2ncc(C(F)(F)F)cc2C(F)(F)F)c2ccc(F)cc2)nn1 ?
Out: 52.6
